Source listed as PubChem BioAssay (Tox21).

PROTOCOL_DESCRIPTION: p53 small molecule agonists, cell-based qHTS assay with rat liver microsomes: qHTS cell viability counter screen (AID 1963580); further: nearly all actives have a fitted effect of over 45% in size
TEST_CONDITIONS: p53RE-bla HCT-116 + rat microsomes, ATP viability, 16 h; series mostly up to 66 µM
Inconclusive results are not listed. The source made the active and inactive calls. The call rests on the fitted dose curve.
Labels: y (active), n (inactive)

MOLECULE: C1N2CN3CN1CN(C2)C3
CAT: n
--
MOLECULE: CC(=O)Nc1ccccc1
CAT: n
--
MOLECULE: CC(C)(C#N)c1cc(Cn2cncn2)cc(C(C)(C)C#N)c1
CAT: n
--
MOLECULE: Cc1ccc(C)c(OCCCC(C)(C)C(=O)O)c1
CAT: n
--
MOLECULE: Cc1cn([C@H]2C=C[C@@H](CO)O2)c(=O)[nH]c1=O
CAT: n
--
MOLECULE: Cc1ccccc1C=O
CAT: n
--
MOLECULE: Nc1c2c(nc3ccccc13)CCCC2
CAT: n
--
MOLECULE: OCC(O)CS (stereo unspecified)
CAT: n
--
MOLECULE: CCOc1ccc(NC(C)=O)cc1
CAT: n
--
MOLECULE: Oc1ccccc1
CAT: n
--
MOLECULE: C=C(C)C1CC=C(C)CC1 (stereo unspecified)
CAT: n
--
MOLECULE: Brc1ccc(Oc2ccc(Br)cc2)cc1
CAT: n
--
MOLECULE: CCCCCCCCCCCCCCCCCC(=O)OCC(O)CO (stereo unspecified)
CAT: n
--
MOLECULE: CCC(=O)OC/C=C/c1ccccc1
CAT: n
--
MOLECULE: Cc1c(N(C)C)c(=O)n(-c2ccccc2)n1C
CAT: n
--
MOLECULE: NS(=O)(=O)c1cc2c(cc1Cl)NCNS2(=O)=O
CAT: n
--
MOLECULE: COc1ccc(C)cc1N
CAT: n
--
MOLECULE: C=CC(=O)OCCCC
CAT: n
--
MOLECULE: CCCC(C)=O
CAT: n
--
MOLECULE: CCCCCC1=CCCC1=O
CAT: n
--
MOLECULE: Oc1cccc(O)c1
CAT: n
--
MOLECULE: CC(COc1ccccc1)N(CCCl)Cc1ccccc1 (stereo unspecified)
CAT: n
--
MOLECULE: CCCCC/C=C\C/C=C\CCCCCCCC(=O)OC
CAT: n
--
MOLECULE: CC(C)=CCC/C(C)=C\CO
CAT: n
--
MOLECULE: Nc1ccc2c(O)cc(S(=O)(=O)O)cc2c1
CAT: n
--
MOLECULE: COC(C)COC(C)COC(C)CO (stereo unspecified)
CAT: n
--
MOLECULE: CNC(=S)N(C)C
CAT: n
--
MOLECULE: NC(N)=NC(=O)c1nc(Cl)c(N)nc1N
CAT: n
--
MOLECULE: O=C(/C=C/C=C/c1ccc2c(c1)OCO2)N1CCCCC1
CAT: n
--
MOLECULE: CCCCCCCCC(=O)O
CAT: n
--
MOLECULE: OC(CCl)CCl
CAT: n
--
MOLECULE: CCCCC(C=O)CC (stereo unspecified)
CAT: n
--
MOLECULE: OCCOCCOCCO
CAT: n
--
MOLECULE: CCCCCCCCCCCCOC(=O)c1cc(O)c(O)c(O)c1
CAT: y
--
MOLECULE: CC1(C)O[C@@H]2C[C@H]3[C@@H]4C[C@H](F)C5=CC(=O)CC[C@]5(C)[C@H]4[C@@H](O)C[C@]3(C)[C@]2(C(=O)CO)O1
CAT: n
--
MOLECULE: C=C(C)C(=O)OCCOC(=O)C(=C)C
CAT: n
